Entries annotated with measured GI50
# Tested on: SF-295
# protocol-notes: NCI tumour cell line growth inhibition, 48 h
The source made the active and inactive calls. Rule as the data show it: active = GI50 up to about 1.1 µM and inactive = higher.

// below: answered compounds
CCN(CC)CCCN1CCc2c([nH]c3ccccc23)C1c1cccnc1 (stereo not given)    > 100 µM (inactive)
Cc1cccc(C)c1NC(=O)C1=NC(=S)NC(c2ccccc2)C1c1nc2ccccc2s1 (stereo not given)    > 100 µM (inactive)
ON1CCc2c([nH]c3ccccc23)C1c1ccc(Cl)cc1 (stereo not given)    27.7 µM (inactive)
C=C1NC(=O)C(CC(C(=O)C(=O)Nc2c(C)cccc2C(C)(C)C)C(=O)c2ccc3ccccc3c2)C(=O)N1 (stereo not given)    > 100 µM (inactive)

Next compound, GI50 to be filled in.
Problem: Give its GI50 value. Item: O=C(CCN1CCOCC1)C(=Cc1ccccc1)C(=O)CCN1CCOCC1
Result: 15.6 µM (inactive)

* * *

Entries annotated with measured GI50
# System: UACC-62
# protocol-notes: NCI tumour cell line growth inhibition, 48 h
Calls of active or inactive are those of the source. No stated cut-off is given here; in the data, active = GI50 up to about 1.1 µM and inactive = higher.

Problem: Give its GI50 value. Item: COc1cc(-c2cc(=O)c3c(O)c(OC)c(OC)c(OC)c3o2)cc(OC)c1OC
Result: 32.4 µM (inactive)

Problem: Give its GI50 value. Item: COc1cc([C@@H]2c3cc4c(cc3[C@@H](NCc3cccc(F)c3)C3COC(=O)[C@@H]32)OCO4)cc(OC)c1O (stereo not given in full)
Result: 2.47 µM (inactive)

Problem: Give its GI50 value. Item: Cc1cccc2c1nc1n2C(=O)c2ccccc2-1
Result: > 100 µM (inactive)

Problem: Give its GI50 value. Item: NNc1nncn1N
Result: > 100 µM (inactive)

Problem: Give its GI50 value. Item: CC(=O)Nc1ncc(Sc2ccccc2C(=O)O)s1
Result: > 100 µM (inactive)

Problem: Give its GI50 value. Item: Cn1c2cccc3nnc4cccc(c4c32)n1C
Result: > 100 µM (inactive)

Problem: Give its GI50 value. Item: C=CCN1C(=O)CC2[C@@H]3CCc4cc(O)ccc4C3CC[C@]2(C)C1=O (stereo not given in full)
Result: > 10 µM (inactive)

Problem: Give its GI50 value. Item: Cc1nnc2n1N=C(c1cc(F)c(Cl)cc1Cl)/C(=C/c1ccc(Cl)cc1)S2
Result: 15 µM (inactive)

Problem: Give its GI50 value. Item: CC1(C)OC[C@@H](O)[C@H](C#N)CO1
Result: > 100 µM (inactive)

Problem: Give its GI50 value. Item: O=C1C=CC(=O)c2c(O)c(N3CCN(c4ccccn4)CC3)cc(O)c21
Result: 5.9 µM (inactive)

Problem: Give its GI50 value. Item: N#CCc1cccc(CC#N)c1Br
Result: > 100 µM (inactive)

Problem: Give its GI50 value. Item: ClCCN(CC#CCCCC#CCN(CCCl)CCCl)CCCl
Result: 4.98 µM (inactive)

Problem: Give its GI50 value. Item: CCOC(=O)c1cnc2oc3ccc(O)cc3c2c1C
Result: > 100 µM (inactive)

* * *

# Test system: NCI/ADR-RES
# protocol-notes: NCI tumour cell line growth inhibition, 48 h
Active and inactive are the calls of the source. Rule as the data show it: active = GI50 up to about 1.1 µM and inactive = higher.
measurement-label: GI50

// below: answered molecules
CC1=Cc2ccc(C)cc2C(=O)C1=O    18.8 µM (inactive)
Cc1c(/C=N/NC(=S)Nc2ccccc2)c(=O)n(-c2ccccc2)n1C    22.1 µM (inactive)
O=C1NN(Cc2ccccc2)C(=O)N2CCC[C@@H]12    > 100 µM (inactive)
CC(=O)n1nc(-c2nc3ccccc3nc2Cl)cc1Cl    22.3 µM (inactive)

Problem: Give its GI50 value. Item: O=S(=O)(O)CCCc1cccc2ccccc12
Result: > 100 µM (inactive)

Problem: Give its GI50 value. Item: NNC(=O)CSc1nc2ccccc2c(=O)n1N
Result: > 100 µM (inactive)

Problem: Give its GI50 value. Item: COC(=O)c1cc2c(c(C(=O)OC)c1)CCC2
Result: 59.8 µM (inactive)

Problem: Give its GI50 value. Item: Cc1nc(N)c(N2CCN(S(=O)(=O)N(Cc3ccccc3)Cc3ccccc3)CC2)c(O)n1
Result: 71.3 µM (inactive)

Problem: Give its GI50 value. Item: O=C(NC(Cc1ccccc1)P(=O)(O)c1ccccc1)OCc1ccccc1 (stereo not drawn)
Result: > 100 µM (inactive)

Problem: Give its GI50 value. Item: CNc1nc2c(C)ccc3nc(N(C)C)nc-3c2n1C
Result: > 10 µM (inactive)

Problem: Give its GI50 value. Item: O=C(/C=C/c1cccc([N+](=O)[O-])c1)N1CCN(CCOC(c2ccccc2)c2ccccc2)CC1
Result: 48.6 µM (inactive)

Problem: Give its GI50 value. Item: Cc1ccc(S(=O)(=O)N/N=C/C2(c3ccccc3)c3ccccc3-c3ccccc32)cc1
Result: 7.94 µM (inactive)

* * *

# Tested on: SK-OV-3
# protocol-notes: NCI tumour cell line growth inhibition, 48 h
Active and inactive are the calls of the source. Rule as the data show it: active = GI50 up to about 1.1 µM and inactive = higher.
measurement-label: GI50

// below: answered compounds
CN(C)CCNC(=O)c1cccc2c(NC(CS)C(=O)O)c3ccccc3nc12 (stereo not drawn)    9.86 µM (inactive)
Cc1cc(/N=N/c2ccc(/N=N/c3c(O)c(S(=O)(=O)O)cc4cc(S(=O)(=O)O)ccc34)cc2C)ccc1/N=N/c1ccc2cc(S(=O)(=O)O)cc(S(=O)(=O)O)c2c1    > 47 µM (inactive)
CC(C)OC(=O)c1ccc(NCC2=CC(=O)C=CC2=O)cc1Cl    31.4 µM (inactive)
COc1ccc(N2C(=O)C3c4[nH]c5ccc([N+](=O)[O-])cc5c4C4CCC(C(C)(C)C)CC4C3C2=O)cc1 (stereo not drawn)    > 100 µM (inactive)
O=S(=O)(O)CCCc1cccc2ccccc12    > 100 µM (inactive)

Problem: Give its GI50 value. Item: O=C(Nc1ccccc1-c1nn(CN2CCNCC2)c(=S)n(CN2CCNCC2)c1=O)C(F)(F)F
Result: 20 µM (inactive)

Problem: Give its GI50 value. Item: ClCCN(CC#CCCCC#CCN(CCCl)CCCl)CCCl
Result: 9.31 µM (inactive)

Problem: Give its GI50 value. Item: CC(C)=CCc1c2c(c3occ(-c4ccc(O)c(O)c4)c(=O)c3c1O)C=CC(C)(C)O2
Result: 6.71 µM (inactive)

Problem: Give its GI50 value. Item: Cc1ccc(S(=O)(=O)NCCCN(CCCNS(=O)(=O)c2ccc(C)cc2)S(=O)(=O)c2ccc(C)cc2)cc1
Result: > 100 µM (inactive)

Problem: Give its GI50 value. Item: O=C1c2cc(-c3ccccc3)cnc2S(=O)(=O)N1c1ccc(Br)cc1
Result: 26.2 µM (inactive)

Problem: Give its GI50 value. Item: O=C([O-])Cc1ccccc1.[Na+] [SODIUM PHENYLACETATE]
Result: > 2000 µM (inactive)

Problem: Give its GI50 value. Item: O=C1O[C@H]2[C@@H]3OC(=O)c4cc(O)c(O)c(O)c4-c4c(cc(O)c(O)c4O)C(=O)OC[C@H]2O[C@@H](OC(=O)c2cc(O)c(O)c(O)c2)[C@@H]3OC(=O)c2cc(O)c(O)c3c2[C@@H]2C1=CC(=O)C(O)(O)C2(O)O3 (stereo partly drawn)
Result: 11 µM (inactive)

Problem: Give its GI50 value. Item: CC(C)(C)C1CCC(O)(c2ccccc2)CC1 (stereo not drawn)
Result: > 100 µM (inactive)

Problem: Give its GI50 value. Item: CC1OC(OP(=O)(OCc2ccccc2)OCc2ccccc2)C(OC(=O)c2ccccc2)C(OC(=O)c2ccccc2)C1I (stereo not drawn)
Result: > 100 µM (inactive)

Problem: Give its GI50 value. Item: O=C(O)c1cc2c(ncc3c(=O)n(-c4ccccc4)[nH]c32)s1
Result: > 100 µM (inactive)

Problem: Give its GI50 value. Item: CC/C=C\C/C=C\C/C=C\CCCCCCCC(=O)OC(COC(=O)CCCCCCCCCCCCCCCCC)COC1OC(CO)C(O)C(O)C1O (stereo not drawn)
Result: > 25 µM (inactive)

Problem: Give its GI50 value. Item: O=C(CCN1CCOCC1)C(=Cc1ccccc1)C(=O)CCN1CCOCC1
Result: 16.6 µM (inactive)

Problem: Give its GI50 value. Item: CCCC1C(=O)C(CC)Cc2c(OC)ccc(OC)c21 (stereo not drawn)
Result: > 100 µM (inactive)

* * *

# System: SK-MEL-2
# protocol-notes: NCI tumour cell line growth inhibition, 48 h
Active and inactive are the calls of the source. Rule as the data show it: active = GI50 up to about 1.1 µM and inactive = higher.
measurement-label: GI50

Problem: Any idea what GI50 came out for COc1ccc(CC2C3=C(CCCC3)CCN2C)cc1 (stereo not given) on SK-MEL-2?
Result: > 100 µM (inactive)

* * *

# Tested on: CCRF-CEM
# protocol-notes: NCI tumour cell line growth inhibition, 48 h
Calls of active or inactive are those of the source. Cut-off read from the data, not from the text of the source: active = GI50 up to about 1.1 µM and inactive = higher.
Would you mind answering with one of these outcomes? active, inactive

CC1=NN(c2ccccc2)C2(C1)C(Cl)C(=O)N2c1nc2ccccc2s1 (stereo unspecified)    inactive
Cc1cc(-c2nc3ccccc3s2)ccc1NC(=O)[C@H](C)N    inactive
Cc1c2cccc(Sc3ccccc3)c2c2c3c(cccc13)[S+](c1ccccc1)C2 (stereo unspecified)    inactive
CCCCCCCCCCCCCCCCCc1cccc(OCOCCOC)c1C(=O)O    inactive
O=C(CC1(O)C(=O)Nc2c(Cl)cccc21)c1ccccc1 (stereo unspecified)    inactive
N#Cc1nc2ccccc2nc1N1CCN(c2ccc([N+](=O)[O-])cc2)CC1    inactive

Problem: For ON1CCc2c([nH]c3ccccc23)C1c1ccc(Cl)cc1 (stereo unspecified) , which call appears in the assay record?
Result: inactive

Problem: For CN(C)CCNC(=O)c1cccc2c(NC(CS)C(=O)O)c3ccccc3nc12 (stereo unspecified) , which call appears in the assay record?
Result: inactive
